molecular target: c-Met (cytoplasmic domain) (Homo sapiens); construct: 10 ng/mL c-Met (cytoplasmic domain, Invitrogen Corporation #PV3143); purchased Invitrogen Corporation PV3143; assay: c-Met Kinase Assay (same methods as for ALK, with modifications); assay type: biochemical; conditions: c-Met kinase inhibition, 1 μM ATP (Km level); read-out: cMet Activity
Sequence (P08581 956-1390 limits assumed): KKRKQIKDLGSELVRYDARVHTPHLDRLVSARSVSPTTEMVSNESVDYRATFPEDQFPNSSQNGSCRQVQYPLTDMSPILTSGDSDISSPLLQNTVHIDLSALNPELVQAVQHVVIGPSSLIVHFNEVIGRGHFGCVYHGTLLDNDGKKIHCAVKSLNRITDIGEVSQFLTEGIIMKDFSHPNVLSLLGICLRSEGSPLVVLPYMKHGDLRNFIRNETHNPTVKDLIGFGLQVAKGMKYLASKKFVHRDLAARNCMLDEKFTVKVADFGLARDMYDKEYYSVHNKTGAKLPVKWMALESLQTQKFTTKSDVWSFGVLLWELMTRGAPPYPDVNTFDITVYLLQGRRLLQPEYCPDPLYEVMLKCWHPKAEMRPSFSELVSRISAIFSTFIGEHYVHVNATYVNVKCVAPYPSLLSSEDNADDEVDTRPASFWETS
pIC50: −log10 of the molar value.
# pIC50 annotations
Attribute Measured: pIC50

molecule="CCN1CC2CCC(C1)c1cc(Nc3ncc(Cl)c(Nc4ccccc4C(=O)NC)n3)ccc12 (centres unmarked)" result="> 7.00"
molecule="CNC(=O)c1ccccc1Nc1nc(Nc2ccc3c(c2)C2CCC3CN(C(C)C)C2)ncc1Cl (centres unmarked)" result="> 7.00"
molecule="COCCN1CCc2cc(Nc3ncc(Cl)c(NC4C5C=CC(C5)C4C(N)=O)n3)c(OC)cc2CC1 (centres unmarked)" result="< 5.00"
molecule="CCOC(=O)N1C2CCC1c1c(ccc(Nc3ncc(Cl)c(Nc4ccccc4C(=O)NC)n3)c1Cl)C2 (centres unmarked)" result="5.00 to 6.00"
molecule=CCN1C(=O)CCCc2c1ccc(Nc1ncc(Cl)c(Nc3ccc(N4CCOCC4)cc3OC)n1)c2OC result="< 5.00"
molecule=CNC(=O)c1ccccc1Nc1nc(Nc2cccc3c2C(=O)N(C)CCN3C)ncc1Cl result="< 5.00"
molecule=CCN1C(=O)CCC(C)(C)c2cc(Nc3ncc(Cl)c(Nc4c(Cl)cccc4C(=O)NC)n3)ccc21 result="6.00 to 7.00"
molecule=COCCN1CCN(C)c2cc(Nc3ncc(Cl)c(Nc4ccc(N5CCOCC5)cc4OC)n3)c(OC)cc2C1 result="< 5.00"

###

molecular target: baculovirus-expressed ALK (Homo sapiens); construct: host or cells: baculovirus expression system; assay: ALK Kinase Assay (ELISA-type, time-resolved fluorescence); format: biochemical; settings: 1 μM ATP (Km level), 30 ng/ml ALK, 37° C., 15 minutes; read-out: ALK Activity (ALK kinase inhibition, IC50 class)
Sequence (Q9UM73 19-1620): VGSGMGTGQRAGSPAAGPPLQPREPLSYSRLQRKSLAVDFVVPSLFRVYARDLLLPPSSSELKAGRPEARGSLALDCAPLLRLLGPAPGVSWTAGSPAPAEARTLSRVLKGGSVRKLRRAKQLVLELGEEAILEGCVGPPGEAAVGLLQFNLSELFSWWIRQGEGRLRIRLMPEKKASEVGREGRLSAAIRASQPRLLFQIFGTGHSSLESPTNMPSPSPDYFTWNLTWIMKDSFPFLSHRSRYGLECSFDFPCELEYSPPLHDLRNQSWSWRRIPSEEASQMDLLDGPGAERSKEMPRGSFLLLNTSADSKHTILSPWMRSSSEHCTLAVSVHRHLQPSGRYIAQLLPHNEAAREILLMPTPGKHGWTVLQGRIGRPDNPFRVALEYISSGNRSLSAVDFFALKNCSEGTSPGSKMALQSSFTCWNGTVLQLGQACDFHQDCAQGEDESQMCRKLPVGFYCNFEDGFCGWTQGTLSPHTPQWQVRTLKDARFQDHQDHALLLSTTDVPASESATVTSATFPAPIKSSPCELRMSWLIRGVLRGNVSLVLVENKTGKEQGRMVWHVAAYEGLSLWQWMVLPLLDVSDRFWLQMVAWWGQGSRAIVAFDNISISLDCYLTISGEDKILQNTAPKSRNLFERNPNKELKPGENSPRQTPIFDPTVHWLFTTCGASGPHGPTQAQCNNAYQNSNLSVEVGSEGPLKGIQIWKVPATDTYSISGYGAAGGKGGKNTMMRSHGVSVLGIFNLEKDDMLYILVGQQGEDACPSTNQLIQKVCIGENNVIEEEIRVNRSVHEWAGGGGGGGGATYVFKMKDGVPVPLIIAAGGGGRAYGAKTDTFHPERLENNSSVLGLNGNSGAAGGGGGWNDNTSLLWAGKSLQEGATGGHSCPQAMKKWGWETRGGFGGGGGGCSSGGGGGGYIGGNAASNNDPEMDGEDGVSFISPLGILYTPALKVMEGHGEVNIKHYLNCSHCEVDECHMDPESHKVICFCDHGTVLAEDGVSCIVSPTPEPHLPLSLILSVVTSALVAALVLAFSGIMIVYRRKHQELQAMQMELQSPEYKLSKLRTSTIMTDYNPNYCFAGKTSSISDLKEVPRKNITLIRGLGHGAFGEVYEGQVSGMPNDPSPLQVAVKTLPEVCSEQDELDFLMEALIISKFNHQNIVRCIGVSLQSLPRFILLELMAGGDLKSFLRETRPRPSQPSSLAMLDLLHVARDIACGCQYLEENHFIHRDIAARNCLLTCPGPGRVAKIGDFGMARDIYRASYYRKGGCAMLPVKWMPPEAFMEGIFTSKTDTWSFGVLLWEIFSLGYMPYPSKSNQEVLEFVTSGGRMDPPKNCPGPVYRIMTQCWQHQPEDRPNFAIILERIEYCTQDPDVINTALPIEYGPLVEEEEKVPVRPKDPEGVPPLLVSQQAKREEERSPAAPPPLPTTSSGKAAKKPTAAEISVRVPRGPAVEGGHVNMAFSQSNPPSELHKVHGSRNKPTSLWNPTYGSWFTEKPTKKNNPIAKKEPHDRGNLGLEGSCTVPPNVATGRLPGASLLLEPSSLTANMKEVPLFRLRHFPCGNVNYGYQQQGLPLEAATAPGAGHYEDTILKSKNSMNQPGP
Attribute Measured: IC50

compound="COc1cc2c(cc1Nc1ncc(Cl)c(Nc3ccccc3S(C)(=O)=O)n1)CCN(CCS(C)(=O)=O)CC2 [Example 1148]" result="< 100 nM"
compound="C#CCNC(=O)c1ccccc1Nc1nc(Nc2ccc3c(c2)CCN(CCOC)CC3)ncc1Cl [Example 1387]" result="< 100 nM"
compound="COc1cc2c(cc1Nc1ncc(Cl)c(Nc3ccccc3S(=O)(=O)N(C)C)n1)CCN(CCCN1CCOCC1)C(=O)C2 [Example 1183]" result="< 100 nM"
compound="CCN1C(=O)CCC(C)(C)c2ccc(Nc3ncc(Cl)c(Nc4c(F)cccc4N(C)CCC#N)n3)cc21 [Example 1264]" result="100 to 1000 nM"

###

target: baculovirus-expressed ALK (Homo sapiens); construct: host or cells: baculovirus expression system; assay: ALK Kinase Assay (ELISA-type, time-resolved fluorescence); assay type: biochemical; conditions: 1 μM ATP (Km level), 30 ng/ml ALK, 37° C., 15 minutes; read-out: ALK Activity (ALK kinase inhibition, IC50 class)
Attribute Measured: IC50

compound="COCCN1CCc2ccc(Nc3ncc(Cl)c(N[C@@H]4CCC[C@H](N(CC#N)S(C)(=O)=O)C4)n3)cc2CC1 (relative stereo) [Example 1386]" attribute_measured=IC50 result="100 to 1000 nM"
compound="Cc1cccc(C(=O)NCC#N)c1Nc1nc(Nc2ccc3c(c2)CCCC(=O)N3C)ncc1Cl [Example 1039]" attribute_measured=IC50 result="1000 to 10000 nM"
compound="CNC(=O)c1ccccc1Nc1nc(Nc2c(OC)ccc3c2CCC(N2CCOCC2)CC3)ncc1Cl (stereo not shown) [Example 1073]" attribute_measured=IC50 result="100 to 1000 nM"
compound="COc1cc2c(cc1Nc1ncc(Cl)c(Nc3ccccc3S(C)(=O)=O)n1)CCN(CC(=O)N(C)C)CC2 [Example 1142]" attribute_measured=IC50 result="< 100 nM"
compound="COc1cc2c(cc1Nc1ncc(Cl)c(Nc3ccc(N4CCOCC4)cc3OC)n1)CCN(CC(=O)N1CCCC1)CC2 [Example 1155]" attribute_measured=IC50 result="< 100 nM"
compound="CCN1C(=O)CCC(C)(C)c2cc(Nc3ncc(Cl)c(N[C@H]4[C@@H](C(N)=O)[C@@H]5C=C[C@H]4C5)n3)c(OC)cc21 [Example 1314]" attribute_measured=IC50 result="< 100 nM"
compound="CNC(=O)c1cccc(F)c1Nc1nc(Nc2ccc3c(c2)NC(=O)C(NC(=O)CN(C)C)CC3(C)C)ncc1Cl (stereo not shown) [Example 1285]" attribute_measured=IC50 result="100 to 1000 nM"

###

target: c-Met (cytoplasmic domain) (Homo sapiens); construct: 10 ng/mL c-Met (cytoplasmic domain, Invitrogen Corporation #PV3143); purchased Invitrogen Corporation PV3143; test: c-Met Kinase Assay (same methods as for ALK, with modifications); format: biochemical; settings: c-Met kinase inhibition, 1 μM ATP; read-out: cMet Activity
Quick reference: IC50 of the listed items.
Attribute Measured: IC50

compound=CCN1CCc2ccc(Nc3ncc(Cl)c(N[C@H]4CCCC[C@@H]4C(N)=O)n3)cc2CC1 result="> 10 µM"
compound=COc1cc2c(cc1Nc1ncc(Cl)c(Nc3ccc(N4CCOCC4)cc3OC)n1)CCN(CC(=O)N1CCOCC1)CC2 result="> 10 µM"
compound=CC1(C)CCCN(CCN2CCCC2)c2cc(Nc3ncc(Cl)c(N[C@H]4[C@@H](C(N)=O)[C@@H]5C=C[C@H]4C5)n3)ccc21 result="1 to 10 µM"
compound=CNC(=O)c1cccc(F)c1Nc1nc(Nc2ccc3c(c2)CCOC(=O)N3C)ncc1Cl result="< 0.1 µM"
compound="CC(=O)NC1CC(C)(C)c2ccc(Nc3ncc(Cl)c(Nc4c(F)cccc4C(=O)NCC#N)n3)cc2NC1=O (centres unmarked)" result="< 0.1 µM"
compound=CNC(=O)c1ccc2c(c1Nc1nc(Nc3ccc4c(c3)CCN(CCOC)CC4)ncc1Cl)OCO2 result="1 to 10 µM"
compound="CCN1C(=O)C(NC(=O)C(F)(F)F)CC(C)(C)c2ccc(Nc3ncc(Cl)c(Nc4c(F)cccc4C(=O)NC)n3)cc21 (centres unmarked)" result="< 0.1 µM"
compound=CCN1C(=O)CCC(C)(C)c2ccc(Nc3ncc(Cl)c(N[C@H]4[C@@H](C(N)=O)[C@@H]5C=C[C@H]4C5)n3)cc21 result="< 0.1 µM"
compound=CNC(=O)c1cccc(Cl)c1Nc1nc(Nc2ccc3c(c2)CC(=O)N(C)CC3)ncc1Cl result="0.1 to 1 µM"
compound=C#CCNC(=O)c1cccc(F)c1Nc1nc(Nc2ccc3c(c2)N(CCN2CCCC2)CCCC3(C)C)ncc1Cl result="0.1 to 1 µM"
compound=COc1cc2c(cc1Nc1ncc(Cl)c(Nc3ccccc3S(=O)(=O)N(C)C)n1)CCN(CCOC(=O)CN)CC2 result="1 to 10 µM"
compound=CC(=O)NCCOc1cccc(F)c1Nc1nc(Nc2ccc3c(c2)CCOC(=O)N3C)ncc1Cl result="1 to 10 µM"
compound=CNC(=O)c1cccc(F)c1Nc1nc(Nc2ccc3c(c2)N(C(=O)CN2CCCC2)CCCO3)ncc1Cl result="0.1 to 1 µM"
compound=CNC(=O)c1ccc2c(c1Nc1nc(Nc3ccc4c(c3)NC(=O)CCC4(C)C)ncc1Cl)OCO2 result="0.1 to 1 µM"
compound=CNC(=O)c1ccccc1Nc1nc(Nc2c(OC)ccc3c2CCOC(=O)N3C)ncc1Cl result="> 10 µM"
compound=CNC(=O)c1cnn(C)c1Nc1nc(Nc2ccc3c(c2)CC(=O)N(C)CC3)ncc1Cl result="0.1 to 1 µM"
compound="COCCOC(=O)c1ccccc1Nc1nc(Nc2cc3c(cc2OC)CCN(CC(C)O)CC3)ncc1Cl (centres unmarked)" result="> 10 µM"
compound=CNC(=O)c1c(Cl)sc(Cl)c1Nc1nc(Nc2ccc3c(c2)CN(C)C(=O)CC3)ncc1Cl result="< 0.1 µM"
compound=CNC(=O)c1sc(C)c(C)c1Nc1nc(Nc2ccc3c(c2)CCOC(=O)N3C)ncc1Cl result="< 0.1 µM"
compound=CNC(=O)c1cc(C)cc(C)c1Nc1nc(Nc2ccc3c(c2)CCNC(=O)C3)ncc1Cl result="0.1 to 1 µM"
compound=CNC(=O)c1cccc(Cl)c1Nc1nc(Nc2ccc3c(c2)-c2nccn2CCC3)ncc1Cl result="0.1 to 1 µM"
compound=CCN1C(=O)CCC(C)(C)c2ccc(Nc3ncc(Cl)c(Nc4ccccc4C(=O)NC)n3)cc21 result="< 0.1 µM"
compound="CNC(=O)c1cccc(F)c1Nc1nc(Nc2ccc3c(c2)NC(=O)C(N2CCOCC2)CC3)ncc1Cl (centres unmarked)" result="< 0.1 µM"
compound="CCN1CC(N2CCOCC2)COc2ccc(Nc3ncc(Cl)c(Nc4c(F)cccc4C(=O)NC)n3)cc21 (centres unmarked)" result="< 0.1 µM"
compound=CNC(=O)c1sccc1Nc1nc(Nc2ccc3c(c2)N(CCOC)C(=O)CCC3)ncc1Cl result="< 0.1 µM"
compound=CCN1CCN(CC(=O)OCCOC)C(=O)c2ccc(Nc3ncc(Cl)c(N[C@H]4[C@@H]5CC[C@@H](C5)[C@H]4C(N)=O)n3)cc21 result="1 to 10 µM"
compound=COCCN1CCc2ccc(Nc3ncc(Cl)c(Nc4ccccc4S(=O)(=O)C(C)C)n3)cc2CC1 result="0.1 to 1 µM"
compound=CNC(=O)c1cccc(F)c1Nc1nc(Nc2ccc3c(c2)CN(C)C(=O)CC3)ncc1Cl result="< 0.1 µM"
compound=COc1cc2c(cc1Nc1ncc(Cl)c(Nc3ccccc3S(=O)(=O)N3CC[C@@H](O)C3)n1)CCN(C[C@@H](C)O)CC2 result="> 10 µM"
